Catalogue of binders with associated EC50 [M] mfPBMC Proliferation
Target: cynomolgus monkey CD3 expressed on monkey T-cells (PBMCs) (cynomolgus monkey, UniProt Q95LI5 22-198; Q95LI8 22-171)
Sequence (Q95LI5 22-198, chain 1 of 2): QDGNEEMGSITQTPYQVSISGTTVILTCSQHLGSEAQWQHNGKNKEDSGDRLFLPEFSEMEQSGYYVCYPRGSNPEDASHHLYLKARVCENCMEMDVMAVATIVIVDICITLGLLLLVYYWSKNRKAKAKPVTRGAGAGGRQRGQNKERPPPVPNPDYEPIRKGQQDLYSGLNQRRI
Sequence (Q95LI8 22-171, chain 2 of 2): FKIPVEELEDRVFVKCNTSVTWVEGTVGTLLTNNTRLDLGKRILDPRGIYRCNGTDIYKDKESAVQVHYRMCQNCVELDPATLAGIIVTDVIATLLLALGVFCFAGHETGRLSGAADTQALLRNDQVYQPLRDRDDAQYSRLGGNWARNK
Test: cell-based or functional assay
Numeric only. Scale: M

| BINDER | EC50 [M] mfPBMC Proliferation [M] |
| --- | --- |
| H1H5788P (antibody, V domains shown, H1H: human IgG1 Fc) VH: EVQLVESGGGLVQPGRSLRLSCAASGFTFDDYTMHWVRQAPGKGLEWVSGISWNSGSIGYADSVKGRFTISRDNAKNSLYLQMNSLRAEDTALFYCAKDQSGYGHYYYGMDVWGQGTTVTVSS VL: EIVMTQSPATLSVSPGERATLSCRASQSVSSNLAWYQQKPGQAPRLLIYGASTRATDIPARFSGSGSGTEFTLTISSLQSEDFAVYHCQQYNNWPLTFGGGTKVEIK | 2.01e-12 |
| H1H5769P (antibody, human IgG1, V domains shown) VH: EVQLVESGGGLVQPGRSLRLSCAASGFTFDDYTMHWVRQVPGKGLEWISGISWNSGSMDYADSVKGRFTISRDNARNSLFLQMNSVRTEDTALYYCAKDKSGYGSFYYGMDVWGQGTTVTVSS VL: EIVLTQSPGTLSLSPGDRATLSCRASQSVSSIYLAWYQQKPGQAPRLLIHGASTRATGIPDRFSGSGSGTDFTLTISRLEPEDFAVYYCQQRAHSPYTFGQGTKLEIK | 8.33e-13 |

QUERY: Query EC50 [M] mfPBMC Proliferation for H1H5781P (antibody, human IgG1, V domains shown, H1H: human IgG1 Fc) VH: EVQLVESGGGLVQPGRSLRLSCAASGFTFDDFTMHWVRQAPGKGLEWVSDISWNSGSIDYADSVKGRFTISRDNARNSLFLQMSSLRTEDTASYYCIKDKSGYGSYNYGLDVWGQGTTVTVSS VL: EIVLTQSPGTLSLSPGDRATLSCRASQSVSSIYLAWYQQKPGQAPRLLIHGASTRATGIPDRFSGSGSGTDFTLTISRLEPEDFALYYCHQRVSSPYTFGQGTKLEIK
RESULT: 7.92e-13

QUERY: Query EC50 [M] mfPBMC Proliferation for H1H5778P (antibody, human IgG1, V domains shown, H1H: human IgG1 Fc) VH: EVQLVESGGGLVQPGRSLRLSCVASGFTFADFTMHWVRQAPGKGLEWVSGISWNSNSIDYADSVKGRFTISRDNAKKSLFLQMSSLRAEDTALYYCVKDRSGYSRFYYGMDVWGQGTTVTVSS VL: EIVMTQSPATLSVSPGERAILSCRASQNINSNLAWYQQKPGQAPRLLIYGASTRATGVPARFSGSGSGTEFTLTIRSLQSEDFAVYYCQQYYNWPITFGHGTRLEIK
RESULT: 5.93e-13

QUERY: Query EC50 [M] mfPBMC Proliferation for H1H2712N (antibody, human IgG1, V domains shown, H1H: human IgG1 Fc) VH: EVQLVESGGGLVQPGGSLRLSCAATGFTFDDFTMHWVRQAPGKGLEWVSGISWNSGSIGYVDSVKGRFTISRDNAKNSLYLQMNSLRAEDTALYYCAKDNSGYGYYYYGMDVWGQGTTVTVSS VL: EIVMTQSPATLSVSPGERATLSCRASHSVSRNSAWYQQKPGQAPRLLIYGASTRATGIPARFSGSGSGTEFTLTISSLQSEDFAIYYCQQYNNWPLTFGGGTKVEIK
RESULT: 2.72e-12
